# assay-system: (L1.35P)-MRGPRX1 (Homo sapiens, UniProt Q96LB2, L30P)
# Construct: host or cells: COS-7
# Sequence (Q96LB2 whole entry L30P): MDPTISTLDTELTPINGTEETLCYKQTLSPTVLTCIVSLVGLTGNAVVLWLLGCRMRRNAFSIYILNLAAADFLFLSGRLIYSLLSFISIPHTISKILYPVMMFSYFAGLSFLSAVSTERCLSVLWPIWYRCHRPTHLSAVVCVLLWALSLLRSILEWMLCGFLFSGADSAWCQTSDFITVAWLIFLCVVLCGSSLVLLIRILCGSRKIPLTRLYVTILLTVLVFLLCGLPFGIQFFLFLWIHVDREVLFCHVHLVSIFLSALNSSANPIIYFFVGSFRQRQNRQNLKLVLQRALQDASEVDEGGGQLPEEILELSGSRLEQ
# test-summary: Intracellular Ca2+ mobilization in COS-7 cells, Gαq16-fused receptor, (L1.35P)-MRGPRX1
# Assay type: cell-based
# test-settings: BAM8–22; COS-7, Gαq16-fused, Ca2+ mobilization; three replicate analyses
No end group written: not given here.
measure-name: EC50 (µM)

residues	measure-name	measured-number
VGRPEWWMDYQKRYG [BAM8–22, bovine adrenal medulla peptide 8–22]	EC50	3.16
